system: Enterovirus A71; test: Antiviral activity against human enterovirus 71 infected in african green monkey vero cells; type: functional, organism-based; settings: Enterovirus A
Readout type: pEC50
The read-out pEC50 is expressed as -log10 of concentration in moles per litre.

The molecule identified as `C#C[C@@]1(O)[C@H](O)[C@@H](CO)O[C@H]1n1ccc2c(N)ncnc21` registered its pEC50 at 6.20

====

Listing of recorded IC50 by entry.
target: METTL3/METTL14 (Homo sapiens); assay: Inhibition of human recombinant full length METTL3/human N-terminal FLAG-tagged METTL14 expressed in SF9 cells assessed as methyltransferase residual activity using ssRNA 5'-rUrArC rArCrU rCrGrA rUrCrU rGrGrA rCrUrA rArArG rCrUrG rCrUrC -3' as substrate incubated for 20 mins followed by H-SAM addition measured after 2 hrs by radio isotope reaction system analysis
Sequence (Q86U44 whole entry): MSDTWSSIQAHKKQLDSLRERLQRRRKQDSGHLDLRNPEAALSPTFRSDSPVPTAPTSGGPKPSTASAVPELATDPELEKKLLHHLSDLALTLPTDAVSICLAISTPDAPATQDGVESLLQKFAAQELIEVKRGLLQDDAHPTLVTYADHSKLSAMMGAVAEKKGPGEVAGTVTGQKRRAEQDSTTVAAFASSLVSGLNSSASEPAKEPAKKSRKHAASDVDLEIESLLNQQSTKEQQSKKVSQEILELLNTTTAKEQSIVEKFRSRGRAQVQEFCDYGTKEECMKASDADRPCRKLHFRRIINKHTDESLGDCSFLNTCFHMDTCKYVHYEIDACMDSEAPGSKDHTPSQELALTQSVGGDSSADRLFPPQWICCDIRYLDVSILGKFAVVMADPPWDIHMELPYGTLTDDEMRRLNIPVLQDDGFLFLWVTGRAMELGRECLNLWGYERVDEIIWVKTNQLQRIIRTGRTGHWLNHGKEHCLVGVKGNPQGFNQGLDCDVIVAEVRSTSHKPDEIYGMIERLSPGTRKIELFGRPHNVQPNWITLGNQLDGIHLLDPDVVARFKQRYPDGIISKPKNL
Sequence (Q9HCE5 whole entry, further chain): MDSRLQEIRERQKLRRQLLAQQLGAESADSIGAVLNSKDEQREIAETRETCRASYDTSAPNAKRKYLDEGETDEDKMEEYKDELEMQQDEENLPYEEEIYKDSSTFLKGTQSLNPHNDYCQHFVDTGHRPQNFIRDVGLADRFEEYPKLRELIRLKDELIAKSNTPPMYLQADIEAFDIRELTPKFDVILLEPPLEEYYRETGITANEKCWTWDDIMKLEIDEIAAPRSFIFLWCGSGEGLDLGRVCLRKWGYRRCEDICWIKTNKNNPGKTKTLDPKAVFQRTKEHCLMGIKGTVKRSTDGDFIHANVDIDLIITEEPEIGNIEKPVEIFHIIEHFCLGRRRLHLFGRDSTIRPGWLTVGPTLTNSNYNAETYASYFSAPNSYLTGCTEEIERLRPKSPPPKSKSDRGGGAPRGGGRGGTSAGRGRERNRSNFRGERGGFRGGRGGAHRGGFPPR

Study these solved cases before continuing.
OC[C@H]1O[C@@H](n2ccc3c(NCc4cccc(Cl)c4)ncnc32)[C@H](O)[C@@H]1O
58.8 µM
OC[C@H]1O[C@@H](n2ccc3c(NCc4cccc(C(F)(F)F)c4)ncnc32)[C@H](O)[C@@H]1O
129 µM

Documented IC50 of `CSC[C@H]1O[C@@H](n2cnc3c(NCc4cccc(Cl)c4)ncnc32)[C@H](O)[C@@H]1O` : 184 µM
